System: CD70 promoter
Experiment: Bisulfite sequencing of the CD70 promoter in drug-treated CD4+ T cells
Assay type: cell-based, human
Conditions: CD4+ T cells stimulated with anti-CD3 and anti-CD28, vs stimulated untreated controls; FIGS. 13, 14
Excerpt: In other studies, T cells were isolated by negative selection using magnetic beads and instructions provided by the manufacturer (Pan T cell Isolation Kit, Miltenyi), and the CD4+ or CD8+ subset was similarly isolated by magnetic cell sorting. […] The effect of lupus and DNA methylation inhibitors on a regulatory element in the CD70 promoter was examined. […] Results are presented as the mean±SEM of the average methylation of the 6 CG pairs, measured from the 10-35 determinations/group. […]
ENDPOINT_LABEL: methylation of the 10 CG pairs in the CD70 promoter region between −515 and −423

INSERT INTO measurements (compound, study_system, observed_value) VALUES
  ('N#CC(=C(/N)Sc1ccccc1N)/C(C#N)=C(\N)Sc1ccccc1N [U0126]', 'CD70 promoter', 'appears to demethylate'),
  ('COc1cccc(-c2cc(=O)c3ccccc3o2)c1N [PD98059]', 'CD70 promoter', 'appears to demethylate'),
  ('CCN(CC)CCNC(=O)c1ccc(N)cc1 [procainamide]', 'CD70 promoter', 'appears to demethylate');

The measurements presented in this section are drawn from patent US7439024B2.
